# targetDesc: human NET (Homo sapiens, UniProt P23975)
# Sequence (P23975 whole entry): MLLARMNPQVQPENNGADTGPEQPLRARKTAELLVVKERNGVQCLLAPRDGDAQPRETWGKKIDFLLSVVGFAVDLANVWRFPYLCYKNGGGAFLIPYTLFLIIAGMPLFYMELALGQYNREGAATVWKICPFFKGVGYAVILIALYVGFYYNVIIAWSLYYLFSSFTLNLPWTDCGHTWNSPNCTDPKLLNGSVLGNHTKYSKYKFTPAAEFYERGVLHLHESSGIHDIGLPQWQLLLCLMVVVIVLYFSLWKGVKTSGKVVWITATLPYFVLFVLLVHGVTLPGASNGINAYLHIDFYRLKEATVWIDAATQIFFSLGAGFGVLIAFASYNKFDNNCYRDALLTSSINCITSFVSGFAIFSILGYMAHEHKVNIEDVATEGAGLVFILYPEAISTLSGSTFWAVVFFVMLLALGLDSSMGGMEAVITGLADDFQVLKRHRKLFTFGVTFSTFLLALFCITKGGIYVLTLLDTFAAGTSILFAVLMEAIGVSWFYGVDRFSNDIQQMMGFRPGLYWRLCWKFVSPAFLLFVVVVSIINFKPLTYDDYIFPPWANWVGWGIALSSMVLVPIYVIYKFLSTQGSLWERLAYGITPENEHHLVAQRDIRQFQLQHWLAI
# assay: cell-based
# Format: cell-based
Catalogue of IC50 values
measure: IC50 (µM)

COc1cccc(C2(O)CCCCC2CN(C)C)c1 (centres unmarked) : 2.1
CCC(=O)C(CC(C)N(C)C)(c1ccccc1)c1ccccc1 (centres unmarked) : 4.1
CC[C@@H](c1cccc(O)c1)[C@@H](C)CN(C)C : 1.3
